# Test system: MiaPaCa-2 pancreatic cancer cell line
# experimental-details: In vitro cell viability studies (resazurin/Alamar Blue)
# Type: cell-based
# test-conditions: Homo sapiens, MIA PaCa-2; MiaPaCa-2, 48 hr incubation, mean ± SD; read-out: IC50 (μM) against MiaPaCa-2 cell line as determined by cell viability studies
Where a name gives a salt, the structure may show the parent alone.
experimental-readout: IC50 (µM)
Report the figure in µM without appending any unit label.

input: // query IC50 value for entry O=c1[nH]cc(F)c(=O)[nH]1 [Compound 5-FU, 5-Fluorouracil, reference compound]
output: 51.1

input: // query IC50 value for entry Nc1ccn([C@@H]2O[C@H](CO)[C@@H](O)C2(F)F)c(=O)n1 [GemHCl, Gemcitabine Hydrochloride, reference compound]
output: 25.3

input: // query IC50 value for entry CCc1c2c(nc3ccc(OC(=O)N4CCC(N5CCCCC5)CC4)cc13)-c1cc3c(c(=O)n1C2)COC(=O)[C@]3(O)CC [Irinotecan, reference compound]
output: 28

input: // query IC50 value for entry CCCCCCCC(=O)Nc1nc(=O)n(C2CCCO2)cc1F (centres unmarked) [XYZ-I-71]
output: 13.8

input: // query IC50 value for entry CCCCCCCCCCCC(=O)Nc1nc(=O)n(C2CCCO2)cc1F (centres unmarked) [XYZ-I-73]
output: 6.81
